Experiment: Half life in human liver microsomes
Type: ADME, Microsome
Record form. Attribute: half-life. Fill in for each entry.
Give bare numbers, in h.

Previously resolved entries follow.
• C=C[C@@H]1C[C@]1(NC(=O)[C@@H]1C[C@@H](n2cc(-c3ccccc3)nn2)CN1C(=O)[C@@H](NC(=O)OC1CCCC1)C(C)(C)C)C(=O)NS(=O)(=O)C1CC1 = 1.57
• C=C[C@@H]1C[C@]1(NC(=O)[C@@H]1C[C@@H](c2csc(-c3cc(OC)ccc3OC)n2)CN1C(=O)[C@@H](NC(=O)OC1CCCC1)C(C)(C)C)C(=O)NS(=O)(=O)C1(C)CC1 = 0.95
• C=C[C@@H]1C[C@]1(NC(=O)[C@@H]1C[C@@H](c2csc(-c3cc(OC)ccc3OC)n2)CN1C(=O)[C@@H](NC(=O)OC1CCCC1)C(C)(C)C)C(=O)NS(=O)(=O)C1CC1 = 1.15

Now let's try a different one.
Sure, the documented half-life for C=C[C@@H]1C[C@]1(NC(=O)[C@@H]1C[C@@H](c2csc(-c3ccccc3)n2)CN1C(=O)[C@@H](NC(=O)OC1CCCC1)C(C)(C)C)C(=O)NS(=O)(=O)C1CC1 is 2.25

----------
Tested on: Hepatitis C virus
Assay: Antiviral activity against Hepatitis C virus infected in human […] cells after 72 hrs by luciferase reporter gene assay
Assay type: functional, organism-based, Hepacivirus hominis
measurement-label: EC50 (nM)
Answers are plain numbers, in nM.

* C=C[C@@H]1C[C@]1(NC(=O)[C@@H]1C[C@@H](c2csc(-c3ccccc3F)n2)CN1C(=O)[C@@H](NC(=O)OC1CCCC1)C(C)(C)C)C(=O)NS(=O)(=O)C1CC1 | 235

Quick request: EC50 for each listed item, please.
1. C=C[C@@H]1C[C@]1(NC(=O)[C@@H]1C[C@@H](c2csc(-c3ccccc3)n2)CN1C(=O)[C@@H](NC(=O)OC1CCCC1)C(C)(C)C)C(=O)NS(=O)(=O)C1CC1
2. C=C[C@@H]1C[C@]1(NC(=O)[C@@H]1C[C@@H](c2csc(-c3cccc(OC)c3)n2)CN1C(=O)[C@@H](NC(=O)OC1CCCC1)C(C)(C)C)C(=O)NS(=O)(=O)C1CC1

Result:
1. 175
2. 140

----------
System: Hepatitis C virus
Experiment: Antiviral activity against Hepatitis C virus infected in human […] cells after 72 hrs by luciferase reporter gene assay
Format: functional, organism-based, Hepacivirus hominis
Binary call on EC50 with cut-off 300 nM: strictly below means t, and equality or higher means f.

The examples below pair each entry with its known result.
- C=C[C@@H]1C[C@]1(NC(=O)[C@@H]1C[C@@H](n2cc(-c3ccccc3)c(C)n2)CN1C(=O)[C@@H](NC(=O)OC1CCCC1)C(C)(C)C)C(=O)NS(=O)(=O)C1CC1: f
- C=C[C@@H]1C[C@]1(NC(=O)[C@@H]1C[C@@H](c2csc(-c3ccccc3C)n2)CN1C(=O)[C@@H](NC(=O)OC1CCCC1)C(C)(C)C)C(=O)NS(=O)(=O)C1CC1: f

Task: Determine if C=C[C@@H]1C[C@]1(NC(=O)[C@@H]1C[C@@H](n2cc(-c3ccccc3)nn2)CN1C(=O)[C@@H](NC(=O)OC1CCCC1)C(C)(C)C)C(=O)NS(=O)(=O)C1CC1 shows EC50 strictly lower than 300 nM.
Result: f

Task: Determine if C=C[C@@H]1C[C@]1(NC(=O)[C@@H]1C[C@@H](c2csc(-c3cc(F)ccc3OC)n2)CN1C(=O)[C@@H](NC(=O)OC1CCCC1)C(C)(C)C)C(=O)NS(=O)(=O)C1CC1 shows EC50 strictly lower than 300 nM.
Result: t

Task: Determine if C=C[C@@H]1C[C@]1(NC(=O)[C@@H]1C[C@@H](c2nc(-c3ccccc3)cs2)CN1C(=O)[C@@H](NC(=O)OC1CCCC1)C(C)(C)C)C(=O)NS(=O)(=O)C1CC1 shows EC50 strictly lower than 300 nM.
Result: f

Task: Determine if C=C[C@@H]1C[C@]1(NC(=O)[C@@H]1C[C@@H](c2csc(-c3cccc(OC)c3OC)n2)CN1C(=O)[C@@H](NC(=O)OC1CCCC1)C(C)(C)C)C(=O)NS(=O)(=O)C1CC1 shows EC50 strictly lower than 300 nM.
Result: t

Task: Determine if C=C[C@@H]1C[C@]1(NC(=O)[C@@H]1C[C@@H](c2csc(-c3cc(C)ccc3OC)n2)CN1C(=O)[C@@H](NC(=O)OC1CCCC1)C(C)(C)C)C(=O)NS(=O)(=O)C1CC1 shows EC50 strictly lower than 300 nM.
Result: t

Task: Determine if C=C[C@@H]1C[C@]1(NC(=O)[C@@H]1C[C@@H](c2csc(-c3ccc(OC)cc3)n2)CN1C(=O)[C@@H](NC(=O)OC1CCCC1)C(C)(C)C)C(=O)NS(=O)(=O)C1CC1 shows EC50 strictly lower than 300 nM.
Result: f

Task: Determine if C=C[C@@H]1C[C@]1(NC(=O)[C@@H]1C[C@@H](n2cnc(-c3ccccc3)c2)CN1C(=O)[C@@H](NC(=O)OC1CCCC1)C(C)(C)C)C(=O)NS(=O)(=O)C1CC1 shows EC50 strictly lower than 300 nM.
Result: f

Task: Determine if C=C[C@@H]1C[C@]1(NC(=O)[C@@H]1C[C@@H](c2csc(-c3ccccc3OC)n2)CN1C(=O)[C@@H](NC(=O)OC1CCCC1)C(C)(C)C)C(=O)NS(=O)(=O)C1CC1 shows EC50 strictly lower than 300 nM.
Result: t

Task: Determine if C=C[C@@H]1C[C@]1(NC(=O)[C@@H]1C[C@@H](c2csc(-c3cc(OC)ccc3OC)n2)CN1C(=O)[C@@H](NC(=O)OC1CCCC1)C(C)(C)C)C(=O)NS(=O)(=O)C1CC1 shows EC50 strictly lower than 300 nM.
Result: t
